Target: WEE1 (Homo sapiens, UniProt P30291+Q96SW2)
Construct: C-terminal ePL-tagged (DiscoverX, Fremont, CA) full-length WEE1 expression construct; expressed in transfected cells; host or cells: LentiX-HEK293T (Invitrogen), lentiviral transduction; co-expressing GSPT1-GN (G576N, lacking the first 158 amino acids)
Experiment: WEE1-ePL degradation assay (LentiX-WEE1-ePL-GSPT1-ND cells, InCELL Hunter luminescence, 4 h)
Assay type: cell-based
Conditions: 293T-LentiX WEE1-ePL cells, read-out: 293T-LentiX WEE1-ePL Degradation 4 hr (EC50)
reported endpoint: DC50 (nM)

Some compounds with known DC50 results, for comparison:
>  <compound>
O=C1CC[C@@H](N2Cc3cc(O[C@H]4CCN(Cc5ccc6nc(C7CCOCC7)ccc6c5)C4)ccc3C2=O)C(=O)N1

>  <unit info>
nM

>  <endpoint value>
6.75

$$$$
>  <compound>
O=C1CCC(N2Cc3cc(O[C@H]4CCN(Cc5ccc6nc(CO[C@H]7CCOC7)ccc6c5)C4)ccc3C2=O)C(=O)N1 (some centres unmarked)

>  <unit info>
nM

>  <endpoint value>
7.04

$$$$

[P] O=C1CCC(N2Cc3cc(O[C@H]4CCN(Cc5ccc6nc(N7CCC(F)(F)CC7)ccc6c5)C4)ccc3C2=O)C(=O)N1 (some centres unmarked)
[Q] COC[C@H]1CCC[C@@H]1c1ccc2cc(CN3CC[C@H](Oc4ccc5c(c4)CN(C4CCC(=O)NC4=O)C5=O)C3)ccc2n1 (some centres unmarked)
[R] O=C1CCC(N2Cc3cc(O[C@H]4CCN(Cc5cc6cc([C@H]7CCOC7)ccc6cn5)C4)ccc3C2=O)C(=O)N1 (some centres unmarked)
Order field: DC50 | Direction: descending (largest first) In your reply, arrange the labels in the requested order.
P, Q, R
(P: 38.4 nM, Q: 5.38 nM, R: 1.99 nM)
